assayConditions: in acetone, 292.55 K
attributeMeasured: solubility (mole fraction)

- CSc1cccc(Nc2ccccc2)c1: 0.306

* * *

assayConditions: in 1,2-dichloroethane, 313.15 K
attributeMeasured: solubility (mole fraction)

* COc1cccc(Nc2ccccc2)c1 | 0.355

* * *

assayConditions: in 1,2-dichloroethane, 318.85 K
attributeMeasured: solubility (mole fraction)

• COc1cccc(Nc2ccccc2)c1 = 0.401

* * *

assayConditions: in acetone, 303.05 K
attributeMeasured: solubility (mole fraction)

- COc1cccc(Nc2ccccc2)c1: 0.327

* * *

assayConditions: in ethyl acetate, 291.05 K
attributeMeasured: solubility (mole fraction)

- COc1cccc(Nc2ccccc2)c1: 0.225

* * *

assayConditions: in chloroform, 315.5 K
attributeMeasured: solubility (mole fraction)

• COc1cccc(Nc2ccccc2)c1 = 0.386

* * *

assayConditions: in ethyl acetate, 316.45 K
attributeMeasured: solubility (mole fraction)

- CSc1cccc(Nc2ccccc2)c1: 0.516

* * *

assayConditions: in chloroform, 307.55 K
attributeMeasured: solubility (mole fraction)

* CSc1cccc(Nc2ccccc2)c1 | 0.391

* * *

assayConditions: in chloroform, 293.35 K
attributeMeasured: solubility (mole fraction)

• CSc1cccc(Nc2ccccc2)c1 = 0.263

* * *

assayConditions: in methanol, 316.35 K
attributeMeasured: solubility (mole fraction)

* CSc1cccc(Nc2ccccc2)c1 | 0.0761

* * *

assayConditions: in methanol, 296.65 K
attributeMeasured: solubility (mole fraction)

* COc1cccc(Nc2ccccc2)c1 | 0.0214

* * *

assayConditions: in acetone, 317.55 K
attributeMeasured: solubility (mole fraction)

- COc1cccc(Nc2ccccc2)c1: 0.456

Reference source: BigSolDB 2.1
